- tested system: Thromboxane-A synthase (Oryctolagus cuniculus)
- measurement protocol: Inhibitory activity against rabbit thromboxane synthetase
reported endpoint: IC50 (nM)

Example entries begin here.
>>> print(df.to_string())
                                   compound  value
0              O=C(O)C(CCCCCCn1ccnc1)C(=O)O    550
1  CC(Oc1ccc(Cn2ccnc2)cc1)C(=O)O (stereo not given)     38
2                  O=C(O)COc1ccccc1Cn1ccnc1    210

I. O=C(O)c1ccc(CCCn2ccnc2)cc1
II. O=C(O)COc1ccc(Cn2ccnc2)cc1
Which is greater in IC50, the first item I or the second item II ? Respond with the label that goes with your answer.
II

a. O=C(O)Cc1ccc(CCn2ccnc2)cc1
b. O=C(O)CCCCCCc1ncc[nH]1
c. CC(C)(CC/C=C/C=C/C(=O)O)n1ccnc1
Order the records so the highest IC50 appears first and the lowest last. Give the labels in the order specified.
b, a, c

====

- System: Thromboxane-A synthase (Oryctolagus cuniculus)
- measurement protocol: Compound was tested for its inhibitory activity against Thromboxane synthetase
- condition: concentration not given here
reported endpoint: inhibition (%)

>>> df
             smiles_string  reported_endpoint  result_unit  value
0        N#CCCCCCCCn1ccnc1         inhibition            %      0
1  O=S(=O)(O)CCCCCCn1ccnc1         inhibition            %    8.8

1. CSCCCCCCCCn1ccnc1
2. SCCCCCCCCn1ccnc1
// compare measured inhibition between 1 and 2 ; output the lower one Respond with the label that goes with your answer.
1

====

- tested system: Thromboxane-A synthase (Oryctolagus cuniculus)
- measurement protocol: Inhibitory activity against rabbit thromboxane synthetase
reported endpoint: IC50 (nM)

>>> print(df.to_string())
                                   compound  reported_endpoint  value
0               O=C(CCCCCCCn1ccnc1)c1ccccc1               IC50    134
1  C[S+]([O-])CCCCCCCCn1ccnc1 (centres undefined)               IC50   3300
2               O=C(O)CCCc1ccc(-n2ccnc2)cc1               IC50    120
3               O=C(O)CCCc1ccc(Cn2ccnc2)cc1               IC50   1200
4          CC(C)(Oc1ccc(Cn2ccnc2)cc1)C(=O)O               IC50     25
5  O=C(O)C(CO)CCCCCCn1ccnc1 (centres undefined)               IC50    250

I. c1cn(CCCCCCCn2ccnc2)cn1
II. O=C(O)c1ccc(/C=C/Cn2ccnc2)cc1
// compare measured IC50 between I and II ; output the lower one Respond with the label that goes with your answer.
II
(II: 44 nM, I: 2000 nM)

I. O=C(O)/C=C/c1ccc(OCCn2ccnc2)cc1
II. O=C(O)C(O)CCCCCCn1ccnc1 (centres undefined)
III. O=C(O)CCCCCCc1c[nH]cn1
IV. CC(C)(CCCC#CCn1ccnc1)C(=O)O
V. O=C(O)/C=C/c1cccc(Cn2ccnc2)c1
List the 5 entries from lowest IC50 to highest IC50 value. Give the labels in the order specified.
IV, V, II, I, III
(IV: 9 nM, V: 32 nM, II: 140 nM, I: 250 nM, III: 20000 nM)
